Reference source: paper PMC5786060

# Tested on: U937 (human monocytic cell line from histiocytic lymphoma)
# protocol_summary: Anti-proliferation MTT assay, U937 cells
# Type: cell-based
# settings: Homo sapiens, U-937, 48 h, read-out: IC50 (µM) 48h
measured_endpoint: IC50 (µM)
Give the value, in units of µM, as a plain number.

[
  {
    "compound": "O=C(CCCCCn1c(=O)[nH]c2ccccc2c1=O)CCCn1ccnc1 [Compound 11]",
    "measured_endpoint": "IC50",
    "unit": "µM",
    "recorded_value": 90.3
  },
  {
    "compound": "COC(=O)c1ccc(NC(=O)CCCCCn2c(=O)[nH]c3ccccc3c2=O)cc1 [Compound 13]",
    "measured_endpoint": "IC50",
    "unit": "µM",
    "recorded_value": 97
  },
  {
    "compound": "Cc1cc(C)c2c(C)cc3nnc(SCCCN4C(=O)c5ccccc5C4=O)n3c2c1 [Compound 5]",
    "measured_endpoint": "IC50",
    "unit": "µM",
    "recorded_value": 91.2
  }
]

Given COc1ccc(NCC(=O)Nc2ncc(Cc3cccc4ccccc34)s2)cc1 [Compound 9] , respond with its IC50.
95.3
